In what follows, each item is paired with its Ki for Cannabinoid receptor 2 (Homo sapiens, UniProt P34972).
Express it in nM; write the number only.

The following compounds have reported results that may help.
- SMILES STRING: "CCCCCn1cc(C(=O)NC23CC4CC(CC(C4)C2)C3)c(=O)n2nc(-c3ccccc3)cc12"
  QUANTITATIVE READOUT: 2.56
- SMILES STRING: "CCCCCn1cc(C(=O)NC2CCCCCC2)c(=O)n2nc(-c3ccc(Cl)cc3)cc12"
  QUANTITATIVE READOUT: 6.31

Moving on to the next compound.
For CCCCCn1cc(C(=O)NC23CC4CC(CC(C4)C2)C3)c(=O)n2nc(-c3c(Cl)cccc3Cl)cc12 the compound record lists Ki as 98
